# method-summary: chemical genetic growth profiling, strain panel (AID 1159580);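 note: tested at 20 µM; growth read once vehicle control cultures reached saturation at 30 °C; 1 = growth at the plate median or of vehicle wells; lower values mean less growth of the strain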
# condition-notes: S. cerevisiae deletion strains, growth OD, locus YOR290C, strain snf2, hits give low values
The whole screen tested about 5,500 compounds, of which about 2,000 (36%) were called active. About 18% were inconclusive and are not listed. The list shows a part of the results.
readout-label: normalized growth

// worked examples, normalized growth included
>  <compound>
CN(C)CC[C@H](c1ccc(Cl)cc1)c1ccccn1

>  <normalized growth>
0.998 (inactive)

$$$$
>  <compound>
COc1ccc(-c2cc(=O)c3c(OC)c(OC)c(OC)c(OC)c3o2)cc1OC

>  <normalized growth>
0.988 (inactive)

$$$$
>  <compound>
COC1C(O)C(O[C@H]2CC[C@]3(C=O)C4C(CC[C@]3(O)C2)[C@@]2(O)CC[C@H](C3=CC(=O)OC3)[C@@]2(C)C[C@H]4OC(C)=O)OC(C)C1OC(C)=O (stereo partly specified)

>  <normalized growth>
1.03 (inactive)

$$$$
>  <compound>
CC(=O)N1CCN(c2ccc(OCC3CO[C@](Cn4ccnc4)(c4ccc(Cl)cc4Cl)O3)cc2)CC1 (stereo partly specified)

>  <normalized growth>
0.0982 (active)

$$$$
>  <compound>
Cc1c(OCC(F)(F)F)ccnc1CS(=O)c1nc2ccccc2[nH]1 (stereo unspecified)

>  <normalized growth>
1.01 (inactive)

$$$$

In: Returns the measured normalized growth for the input compound. Input: CC[C@@]1(O)C(=O)OCc2c1cc1n(c2=O)Cc2cc3cc(O)ccc3nc2-1
Out: 1.03 (inactive)

In: Next entry: COC1CC(OC2CCC3(C)C(CCC4C3CCC3(C)C(C5=CC(=O)OC5)C(OC(C)=O)CC43O)C2)OC(C)C1O (stereo unspecified)
Out: 0.986 (inactive)

In: Next entry: CC1=CC(=O)C2C(C)(C)CCC[C@]2(C)[C@@]1(O)CCc1ccoc1 (stereo partly specified)
Out: 0.959 (inactive)

In: Next entry: CC[C@@]1(O)C(=O)OCc2c1cc1n(c2=O)Cc2cc3ccccc3nc2-1
Out: 0.746 (active)

In: Next entry: COc1ccc(-c2cc(=O)c3c(O)cc(O)cc3o2)cc1
Out: 0.868 (inactive)

In: Next entry: CCCCCC(O)C1C(=O)OC(C)C(O)/C=C/C=C/C=C/C=C/C=C(\C)C(O)CC(O)CC(O)CC(O)CC(O)CC(O)CC1O (stereo unspecified)
Out: 0.995 (inactive)

###

# method-summary: chemical genetic growth profiling, strain panel (AID 1159580)
# condition-notes: S. cerevisiae deletion strains, growth OD, locus YMR125W, strain sto1, hits give low values
Screen size: about 5,500 compounds; about 2,000 (36%) were called active. Another 18% or so got no clear call; they are omitted. Some of the results follow.
readout-label: normalized growth

>  <compound>
CSc1nc(NC(C)C)nc(NC(C)C)n1

>  <normalized growth>
0.958 (inactive)

$$$$
>  <compound>
O=C(O)c1ccccc1O

>  <normalized growth>
0.923 (inactive)

$$$$
>  <compound>
CC(C)c1cccc(O)c(=O)c1

>  <normalized growth>
0.0871 (active)

$$$$

In: Returns the measured normalized growth for the input compound. Input: C/C=C(\C)C(=O)O[C@@H]1c2c(ccc3ccc(=O)oc23)OC(C)(C)[C@@H]1OC(C)=O
Out: 0.967 (inactive)

In: Next entry: O=C(/C=C(\O)c1ccccc1)c1ccccc1O
Out: 0.991 (inactive)

In: Next entry: CCn1nc(C(=O)O)c(=O)c2cc3c(cc21)OCO3
Out: 1.02 (inactive)

In: Next entry: CNC[C@H](O)c1cccc(O)c1
Out: 0.995 (inactive)

In: Next entry: NC(=O)c1ccccc1O
Out: 0.962 (inactive)

In: Next entry: CCC(=O)OCC(=O)[C@@]1(OC(=O)CC)[C@@H](C)CC2C3CCC4=CC(=O)C=C[C@]4(C)C3(F)[C@@H](O)C[C@@]21C (stereo partly specified)
Out: 0.984 (inactive)

In: Next entry: CCC(=O)OCC(=O)C1(OC(=O)CC)C(C)CC2C3CCC4=CC(=O)C=CC4(C)C3(Cl)C(O)CC21C (stereo unspecified)
Out: 0.988 (inactive)

In: Next entry: CCC(=O)O[C@]1(C(=O)CCl)[C@@H](C)CC2C3CCC4=CC(=O)C=C[C@]4(C)[C@@]3(F)[C@@H](O)C[C@@]21C (stereo partly specified)
Out: 1.02 (inactive)

###

# method-summary: chemical genetic growth profiling, strain panel (AID 1159580)
# condition-notes: S. cerevisiae deletion strains, growth OD, locus YDR054C, strain cdc34, hits give low values
The whole screen tested about 5,500 compounds, of which about 2,000 (36%) were called active. Another 18% or so got no clear call; they are omitted. The list shows a part of the results.
Recorded normalized growth for the following compounds
The answer should be written as a number, with no unit following it.

// worked examples, normalized growth included
>  <smiles-entry>
COC(=O)/C=C1/OC(c2ccc(OC)cc2)=CC1=O

>  <normalized growth>
0.464

$$$$
>  <smiles-entry>
N/C(=N/OC(=O)Nc1cccc(C(F)(F)F)c1)c1ccc(OC(F)(F)F)cc1

>  <normalized growth>
0.971

$$$$
>  <smiles-entry>
Cc1ccc(OS(=O)(=O)c2c(Cl)sc(Cl)c2Br)c([N+](=O)[O-])n1

>  <normalized growth>
0.956

$$$$
>  <smiles-entry>
O=S(=O)(Nc1ccccc1Sc1c(Cl)cncc1Cl)c1ccc(Cl)cc1

>  <normalized growth>
0.974

$$$$
>  <smiles-entry>
CC1(C)C=Cc2cc(/C(N)=N\OC(=O)Nc3cccc(C(F)(F)F)c3)ccc2O1

>  <normalized growth>
0.97

$$$$
>  <smiles-entry>
COc1ccc(N=C2SCC(c3ccc(C)cc3)=NN2CCO)cc1

>  <normalized growth>
0.979

$$$$
>  <smiles-entry>
CCn1nc(C)cc1C(=O)Sc1cccc(Br)c1

>  <normalized growth>
0.885

$$$$
>  <smiles-entry>
Cc1ccc(Sc2ncccc2NS(=O)(=O)c2ccc(Cl)cc2)cc1

>  <normalized growth>
0.922

$$$$

In: Returns the measured normalized growth for the input compound. Input: O=C(NC(=S)NNc1ncc(C(F)(F)F)cc1Cl)c1cccs1
Out: 0.492

In: Next entry: COc1ccc(Br)c(C(=O)/C(C#N)=C/c2cccs2)c1
Out: 0.696

In: Next entry: ONC(=Nc1ccccc1Cl)c1ccccc1Cl
Out: 0.992

###

Recorded normalized growth for the following compounds
# method-summary: chemical genetic growth profiling, strain panel (AID 1159580);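 note: tested at 20 µM; growth read once vehicle control cultures reached saturation at 30 °C; 1 = growth at the plate median or of vehicle wells; lower values mean less growth of the strain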
# condition-notes: S. cerevisiae deletion strains, growth OD, locus YIR030C, strain dcg1, hits give low values
Among all 5,500 compounds or so, about 2,000 (36%) were called active. About 18% were inconclusive and are not listed. Some of the results follow.
The answer should be written as a number, with no unit following it.

// worked examples, normalized growth included
>  <compound>
CCC(=O)OCC(=O)[C@@]1(OC(=O)CC)[C@@H](C)CC2C3CCC4=CC(=O)C=C[C@]4(C)C3(F)[C@@H](O)C[C@@]21C (some centres undefined)

>  <normalized growth>
0.959

$$$$
>  <compound>
CCC(=O)OCC(=O)C1(OC(=O)CC)C(C)CC2C3CCC4=CC(=O)C=CC4(C)C3(Cl)C(O)CC21C (centres undefined)

>  <normalized growth>
0.984

$$$$
>  <compound>
CCC(=O)O[C@]1(C(=O)CCl)[C@@H](C)CC2C3CCC4=CC(=O)C=C[C@]4(C)[C@@]3(F)[C@@H](O)C[C@@]21C (some centres undefined)

>  <normalized growth>
0.985

$$$$

Then this compound:
In: Returns the measured normalized growth for the input compound. Input: CCCCC(=O)O[C@]1(C(=O)CO)[C@@H](C)CC2C3CCC4=CC(=O)C=C[C@]4(C)[C@@]3(F)C(O)C[C@@]21C (some centres undefined)
Out: 0.992

###

# method-summary: chemical genetic growth profiling, strain panel (AID 1159580);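 note: tested at 20 µM; growth read once vehicle control cultures reached saturation at 30 °C; 1 = growth at the plate median or of vehicle wells; lower values mean less growth of the strain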
# condition-notes: S. cerevisiae deletion strains, growth OD, locus YDR297W, strain sur2
In all, about 5,500 compounds went through this assay and about 2,000 (36%) were called active. Another 18% or so got no clear call; they are omitted. No stated cut-off is given here; in the data, active means normalized growth mostly below about 0.91 (no sharp cut-off); inconclusive means no clear call, values can overlap the other calls; inactive means mostly above about 0.92. This is one part of the list.
Give your call using only these classes: YES for active, NO for inactive

In: For Cc1ncc(CO)c(CO)c1O , what call appears in the results of this test?
Out: NO

In: Next entry: C[N+]1(C)C[C@H](O)[C@H](C(=O)[O-])C1
Out: NO

In: Next entry: NS(=O)(=O)c1cc2c(cc1C(F)(F)F)NC(Cc1ccccc1)NS2(=O)=O (centres undefined)
Out: NO

###

# method-summary: chemical genetic growth profiling, strain panel (AID 1159580);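 note: tested at 20 µM; growth read once vehicle control cultures reached saturation at 30 °C; 1 = growth at the plate median or of vehicle wells; lower values mean less growth of the strain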
# condition-notes: S. cerevisiae deletion strains, growth OD, locus YGR052W, strain FMP48, hits give low values
About 2,000 (36%) of roughly 5,500 compounds were called active. About 18% were inconclusive and are not listed. The list shows a part of the results.
Recorded normalized growth for the following compounds

// worked examples, normalized growth included
>  <smiles-entry>
N/C(=N/OC(=O)Nc1cccc(C(F)(F)F)c1)c1ccc(OC(F)(F)F)cc1

>  <normalized growth>
0.551 (active)

$$$$
>  <smiles-entry>
O=C(Nc1ccc(SC(F)(F)F)cc1)Nc1ccc(Oc2cccc(C(F)(F)F)c2)nc1

>  <normalized growth>
0.973 (inactive)

$$$$
>  <smiles-entry>
CC1(C)C=Cc2cc(/C(N)=N\OC(=O)Nc3cccc(C(F)(F)F)c3)ccc2O1

>  <normalized growth>
0.99 (inactive)

$$$$
>  <smiles-entry>
Cc1ccc(Sc2ncccc2NS(=O)(=O)c2ccc(Cl)cc2)cc1

>  <normalized growth>
0.907 (inactive)

$$$$

Then this compound:
In: Returns the measured normalized growth for the input compound. Input: O=C(NNc1cc(C(F)(F)F)cc(C(F)(F)F)c1)c1cnc2n(c1=O)CCS2
Out: 1.03 (inactive)

Provenance of the data: PubChem BioAssay AID1159580
